Recorded measurements of self-splicing fitness (ln), one per entry
procedure_details: self-splicing fitness, log relative to wild type (ln ratio); higher = more splicing; Tetrahymena group I intron in knt gene, E. coli kanamycin selection, DiMSum; sequences stand for … in CUCUCU…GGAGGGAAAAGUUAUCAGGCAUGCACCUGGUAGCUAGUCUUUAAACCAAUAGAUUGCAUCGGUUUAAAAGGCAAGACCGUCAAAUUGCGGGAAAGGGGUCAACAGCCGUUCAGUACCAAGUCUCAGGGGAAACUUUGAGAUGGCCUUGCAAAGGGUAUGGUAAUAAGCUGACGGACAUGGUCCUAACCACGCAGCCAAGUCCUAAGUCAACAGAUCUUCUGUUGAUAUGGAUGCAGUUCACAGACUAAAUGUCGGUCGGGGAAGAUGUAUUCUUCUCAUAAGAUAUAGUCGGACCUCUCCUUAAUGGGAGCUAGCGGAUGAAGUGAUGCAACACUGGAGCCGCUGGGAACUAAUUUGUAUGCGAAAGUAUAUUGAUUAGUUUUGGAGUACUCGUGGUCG;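 further: selection with 25 µg/mL kanamycin versus none on LB agar overnight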
condition_set: 37 °C
property_label: self-splicing fitness (ln)

sequence_data	property_label	number
ACCAAGCAAUAUUACGUCCC	self-splicing fitness (ln)	-0.924
UUGUAGCAAUAUUACGACCA	self-splicing fitness (ln)	-0.51
UGGAAGCAAUAUUACGACCA	self-splicing fitness (ln)	-0.92
UCGCAGCAAUAUUACGCCUC	self-splicing fitness (ln)	-2.36
CUUUAGCAAUAUUACGGGCC	self-splicing fitness (ln)	-2.64
GCUAAGCAAUAUUACGCGUC	self-splicing fitness (ln)	-2.47
GCUAAGCAAUAUUACGUACU	self-splicing fitness (ln)	-0.348
CGAAAGCAAUAUUACGAGUG	self-splicing fitness (ln)	0.0139
CGUUAGCAAUAUUACGAACC	self-splicing fitness (ln)	-0.0684
UGUGAGCAAUAUUACGCUUG	self-splicing fitness (ln)	-3.13
GCCCAGCAAUAUUACGAGCC	self-splicing fitness (ln)	-0.756
UAAAAGCAAUAUUACGGGCG	self-splicing fitness (ln)	0.305
AGAGAGCAAUAUUACGUCCU	self-splicing fitness (ln)	-0.89
UCGCAGCAAUAUUACGCAUG	self-splicing fitness (ln)	-2.56
GGCAAGCAAUAUUACGAAUA	self-splicing fitness (ln)	-0.797
CCAGAGCAAUAUUACGCCAA	self-splicing fitness (ln)	-3.04
CCAGAGCAAUAUUACGUAAA	self-splicing fitness (ln)	-1.29
UCUAAGCAAUAUUACGACCU	self-splicing fitness (ln)	-1.92
ACCUAGCAAUAUUACGUGGG	self-splicing fitness (ln)	-3.4
UGCAAGCAAUAUUACGAGAU	self-splicing fitness (ln)	-3.02
AAUCAGCAAUAUUACGAUGU	self-splicing fitness (ln)	0.543
AUUUAGCAAUAUUACGUGCG	self-splicing fitness (ln)	-0.316
AGACAGCAAUAUUACGCCGA	self-splicing fitness (ln)	-0.863
ACACAGCAAUAUUACGGAAC	self-splicing fitness (ln)	-2.49
GAGCAGCAAUAUUACGUAAC	self-splicing fitness (ln)	-1.13
CUUGAGCAAUAUUACGGUGA	self-splicing fitness (ln)	-2
ACCUAGCAAUAUUACGAAGC	self-splicing fitness (ln)	-0.832
GGCCAGCAAUAUUACGUUAU	self-splicing fitness (ln)	-0.702
UUACAGCAAUAUUACGUAGC	self-splicing fitness (ln)	-2.92
CGGGAGCAAUAUUACGCACU	self-splicing fitness (ln)	-2.65
CCCUAGCAAUAUUACGAACG	self-splicing fitness (ln)	-2.59
UAGCAGCAAUAUUACGUCAU	self-splicing fitness (ln)	-1.52
AACUAGCAAUAUUACGUGCG	self-splicing fitness (ln)	-0.0538
CCGUAGCAAUAUUACGCUUU	self-splicing fitness (ln)	-2.23
GCACAGCAAUAUUACGAUUC	self-splicing fitness (ln)	1.44
GUACAGCAAUAUUACGCACG	self-splicing fitness (ln)	-0.89
GAAUAGCAAUAUUACGGACG	self-splicing fitness (ln)	-0.471
AAGCAGCAAUAUUACGCCGA	self-splicing fitness (ln)	-1.61
CCUCAGCAAUAUUACGUCAU	self-splicing fitness (ln)	-1.77
CCGUAGCAAUAUUACGCAAU	self-splicing fitness (ln)	-2.05
GGCCAGCAAUAUUACGGUAU	self-splicing fitness (ln)	0.47
UAACAGCAAUAUUACGCAAU	self-splicing fitness (ln)	-0.816
UUUUAGCAAUAUUACGCUCA	self-splicing fitness (ln)	0.849
ACGAAGCAAUAUUACGCGUA	self-splicing fitness (ln)	-0.335
CCGGAGCAAUAUUACGUGAA	self-splicing fitness (ln)	-1.86
CUGAAGCAAUAUUACGUGGC	self-splicing fitness (ln)	-0.491
AGUGAGCAAUAUUACGAAUC	self-splicing fitness (ln)	-1.49
GAGAAGCAAUAUUACGAGUU	self-splicing fitness (ln)	-1.63
AACAAGCAAUAUUACGACGC	self-splicing fitness (ln)	-0.386
GCCCAGCAAUAUUACGGGGA	self-splicing fitness (ln)	-0.181
CUAGAGCAAUAUUACGCUGC	self-splicing fitness (ln)	-2.33
GAUGAGCAAUAUUACGGCAU	self-splicing fitness (ln)	-1.79
CAAAAGCAAUAUUACGGGGA	self-splicing fitness (ln)	-2.36
GCCUAGCAAUAUUACGUGAC	self-splicing fitness (ln)	0.101
GCGCAGCAAUAUUACGGUAC	self-splicing fitness (ln)	0.195
AGAGAGCAAUAUUACGGGAA	self-splicing fitness (ln)	-2.62
CCACAGCAAUAUUACGAAGC	self-splicing fitness (ln)	-2.3
CACGAGCAAUAUUACGUCAG	self-splicing fitness (ln)	-2.32
AGGAAGCAAUAUUACGGCAG	self-splicing fitness (ln)	-0.552
UGCAAGCAAUAUUACGACCU	self-splicing fitness (ln)	-0.219
GAUAAGCAAUAUUACGUGUC	self-splicing fitness (ln)	-2.5
ACGAAGCAAUAUUACGAAUA	self-splicing fitness (ln)	0.937
CGGCAGCAAUAUUACGUUAU	self-splicing fitness (ln)	-2.56
UAGCAGCAAUAUUACGUUCG	self-splicing fitness (ln)	0.165
GUGUAGCAAUAUUACGCACU	self-splicing fitness (ln)	-2.13
AAGUAGCAAUAUUACGCCCA	self-splicing fitness (ln)	0.232
AGGUAGCAAUAUUACGACCG	self-splicing fitness (ln)	0.197

Where do these numbers come from? They come from the supplement of paper PMC7877785.
